- Tested on: CCRIS mutagenicity, Ames/micronucleus/aberration tests
- assay_explanation: CCRIS mutagenicity studies
- measurement_context: Test System: MOUSE LYMPHOMA; Strain/Indicator: L5178Y (TK+/TK-); Metabolic Activation: NONE; Method: SUSPENSION/PLATE
Activity calls are given as the source filed them. No rule for the calls is given here.
Valid outcomes are listed here; reply with one: Yes = active, No = inactive

[[record]]
compound = "O=C1C=CC(=O)CC(=O)C1"
cat = "Yes"

[[record]]
compound = "CC/C=C\\C/C=C\\C/C=C\\CCCCCCCC(=O)O"
cat = "No"

[[record]]
compound = "ClC(Cl)Br"
cat = "No"

[[record]]
compound = "CC1=CC(=O)c2c(O)cccc2C1=O"
cat = "No"

[[record]]
compound = "O=S(=O)(O)c1cc(S(=O)(=O)O)c2c(N=Nc3ccccc3)c(O)ccc2c1"
cat = "No"

[[record]]
compound = "C=CC(=O)OCC(CO)(COC(=O)C=C)COC(=O)C=C"
cat = "Yes"

[[record]]
compound = "Cc1c([N+](=O)[O-])c(C)c([N+](=O)[O-])c(C(C)(C)C)c1[N+](=O)[O-]"
cat = "No"

[[record]]
compound = "Cc1c(C(=O)O)c(O)cc2c1C(=O)c1c(O)c([C@@H]3O[C@H](CO)[C@@H](O)[C@H](O)[C@H]3O)c(O)c(O)c1C2=O"
cat = "Yes"


Ask: Outcome logged for NC(CO)Cc1cnc[nH]1 (stereo unspecified) in this assay:
Result: No

Ask: Again, but for CCCCCC(O)/C=C/C=O (stereo unspecified)
Result: Yes

Ask: Again, but for C=C1CC/C=C(/C)CC[C@@H]2[C@@H]1CC2(C)C
Result: No
